Every entry's value here was drawn from PubChem BioAssay AID1259418.

experimental protocol: inhibitors of Toxoplasma growth in IFN-γ-primed HeLa – cell-based, ME49Luc, luciferase, 72 h, dose response (AID 1259418)
assay context: T. gondii ME49Luc in IFN-y HeLa, stronger effect = lower value, -100% = high-dose IFN-γ control wells; at 19.5 µM unless noted
Among all 3,400 compounds or so, about 840 (25%) were called active. Roughly 11% stayed inconclusive and do not appear here. The list is a sample of the results. Potency and affinity values are given separately.
endpoint label: max activity

[[record]]
compound = "O=C(C1CCCCC1)N1[C@@H](CO)[C@@H]2c3ccccc3N(S(=O)(=O)c3ccccc3)C[C@@H]21"
measurement = "38.7% (inactive)"


Please list max activity recorded for the compound C[C@]12CCC3=C4CCC(=O)C=C4CC[C@H]3[C@@H]1CC[C@@]2(O)CC#N
15.3% (inactive)

Please list max activity recorded for the compound O=C(CC1CCCC1)Nc1ccc2c(c1)CCC(=O)N2
12.2% (inactive)

Please list max activity recorded for the compound COc1cccc(-c2nc3c(s2)CN(S(=O)(=O)c2ccccc2Cl)CC3)c1
5.54% [at 10 µM] (inactive)

Please list max activity recorded for the compound COc1ccc(-c2nc3c(s2)CN(S(=O)(=O)c2cccc(Cl)c2C)CC3)cc1
10.3% [at 10 µM] (inactive)

Please list max activity recorded for the compound COc1ccc(CNC(=O)Nc2ccc(-c3nc(-c4ccc(C)cc4C)co3)cc2)cc1
20.3% [at 1.35 µM] (inactive)

Please list max activity recorded for the compound CC(C)CCNC(=O)CC1Nc2c3ccccc3nc(=S)n2C1=O (configuration not stated)
41.3% (inactive)

Please list max activity recorded for the compound Cc1ccc(-c2coc(-c3ccc(NC(=O)Nc4cc(F)ccc4F)cc3)n2)c(C)c1
-9.54% [at 5 µM] (inactive)

Please list max activity recorded for the compound Cc1ccc(-c2coc(-c3ccc(NC(=O)CC4CCCCC4)cc3)n2)cc1
-15.2% (inactive)

Please list max activity recorded for the compound CCOC(=O)C(=O)Nc1ccc(-c2nc(-c3ccc(C)cc3C)co2)cc1
44.4% (inactive)

Please list max activity recorded for the compound Cc1ccc(-c2nc(Cn3nnc(-c4nc(-c5ccccc5Br)no4)c3C)c(C)o2)cc1
-6.98% [at 5 µM] (inactive)

Please list max activity recorded for the compound Cc1ccc(-c2coc(-c3ccc(NC(=O)Nc4cc(C)cc(C)c4)cc3)n2)cc1
-13.8% [at 0.68 µM] (inactive)

Please list max activity recorded for the compound CCOc1cccc(CC(=O)N2CCC3(CC2)Nc2cc(F)ccc2-n2cccc23)c1OCC
11.6% [at 0.35 µM] (inactive)

###

experimental protocol: inhibitors of Toxoplasma growth in IFN-γ-primed HeLa – cell-based, ME49Luc, luciferase, 72 h, dose response (AID 1259418)
assay context: T. gondii ME49Luc in IFN-y HeLa, stronger effect = lower value, -100% = high-dose IFN-γ control wells; at 19.5 µM unless noted
Screen size: about 3,400 compounds; about 840 (25%) were called active. About 11% were inconclusive and are not listed. Not all results are given here. Potency and affinity values are given separately.
endpoint label: max activity

[[record]]
compound = "Cc1ccccc1C(=O)N1CCC2(CC1)Nc1ccc(C)c(C)c1-n1cccc12"
endpoint_label = "max activity"
measurement = "-10.8% [at 5 µM] (inactive)"

[[record]]
compound = "CCOC(=O)C1CCCN(C(=O)Cn2cccc2-c2nc(-c3ccc(C)cc3)cs2)C1 (centres undefined)"
endpoint_label = "max activity"
measurement = "-28.8% (inactive)"

[[record]]
compound = "O=C(c1cnccn1)N1CC(=O)N2[C@H](CO)[C@H](c3ccc(-c4cccc(F)c4)cc3)[C@@H]2C1"
endpoint_label = "max activity"
measurement = "25.7% (inactive)"


Please list max activity recorded for the compound COCCN1CCc2nc(SCc3nc(-c4ccc(C)cc4)oc3C)[nH]c(=O)c2C1
-13.7% [at 2.6 µM] (inactive)

Please list max activity recorded for the compound Cc1oc(-c2ccccc2)nc1Cn1nc2n(Cc3ccc(F)cc3)c(=O)c3nn(C)cc3n2c1=O
15.8% (inactive)

###

max activity overview
experimental protocol: inhibitors of Toxoplasma growth in IFN-γ-primed HeLa – cell-based, ME49Luc, luciferase, 72 h, dose response (AID 1259418)
assay context: T. gondii ME49Luc in IFN-y HeLa, stronger effect = lower value, -100% = high-dose IFN-γ control wells; at 19.5 µM unless noted
Among all 3,400 compounds or so, about 840 (25%) were called active. Roughly 11% stayed inconclusive and do not appear here. The list is a sample of the results. Entries with a potency or affinity are not part of this list.

Please list max activity recorded for the molecule Cc1ccc(Nc2nc(N)nc(CN3CCc4ccccc4C3)n2)cc1
19.9% [at 5 µM] (inactive)

Please list max activity recorded for the molecule O=C(Nc1ccc(-c2nc(-c3ccccc3)co2)cc1)Nc1ccc2c(c1)OCO2
19.1% [at 0.16 µM] (inactive)

Please list max activity recorded for the molecule CCCc1ccc(S(=O)(=O)Nc2ccc(-c3nc(-c4ccc(C)cc4C)co3)cc2)cc1
-16.7% [at 0.16 µM] (inactive)

Please list max activity recorded for the molecule CCc1ccc(S(=O)(=O)N2CCC3(CC2)NCCN=C3NCc2cc(F)cc(F)c2)cc1
16.8% (inactive)

Please list max activity recorded for the molecule COc1cccc(CNC(=O)Nc2ccc(-c3nc(-c4ccccc4)co3)cc2)c1
78.4% (inactive)

Please list max activity recorded for the molecule O=C(CC1Nc2c3ccccc3nc(=S)n2C1=O)NCc1cccc(Cl)c1 (centres undefined)
-20.4% [at 2.6 µM] (inactive)

Please list max activity recorded for the molecule COc1ccc(CN2CCc3nc(SCc4nc(-c5cccc(C)c5)oc4C)[nH]c(=O)c3C2)cc1
-7.54% [at 2.6 µM] (inactive)

Please list max activity recorded for the molecule Cc1ccc(-c2coc(-c3ccc(NC(=O)CC(C)C)cc3)n2)c(C)c1
14.2% [at 10 µM] (inactive)

Please list max activity recorded for the molecule CCc1nc(OCC(=O)Nc2cccc(C)c2C)c2ccccc2n1
34.5% (inactive)

Please list max activity recorded for the molecule COc1ccc(C(=O)Nc2ccc3c(c2)CCC(=O)N3C)c(C)c1
42.4% (inactive)

Please list max activity recorded for the molecule CC(C)Cc1ccc(S(=O)(=O)N2CCC3(CC2)NCCN=C3NCc2cccc(F)c2)cc1
16.8% [at 10 µM] (inactive)

Please list max activity recorded for the molecule COc1cccc(C#Cc2ccc([C@H]3[C@@H](C#N)N(C(=O)c4ccccn4)[C@@H]3CO)cc2)c1
11.2% [at 10 µM] (inactive)

Please list max activity recorded for the molecule COc1ccccc1-c1nc(CSc2nc3c(c(=O)[nH]2)CN(Cc2ccccc2)CC3)c(C)o1
31.5% (inactive)

Please list max activity recorded for the molecule CCc1nc(OCC(=O)NCc2ccc(OC)cc2)c2ccccc2n1
25.3% (inactive)

###

experimental protocol: inhibitors of Toxoplasma growth in IFN-γ-primed HeLa – cell-based, ME49Luc, luciferase, 72 h, dose response (AID 1259418)
assay context: T. gondii ME49Luc in IFN-y HeLa, stronger effect = lower value, -100% = high-dose IFN-γ control wells; at 19.5 µM unless noted
Out of some 3,400 compounds screened, about 840 (25%) were called active. Another 11% or so got no clear call; they are omitted. Only a sample is shown. Potency and affinity values are given separately.
max activity overview

Worked examples follow.
[[record]]
compound = "Cc1cc(C(F)(F)F)nn1CC(=O)N1CCCC1c1cc(C(C)C)no1 (stereo not drawn)"
measurement = "16% [at 2.6 µM] (inactive)"

[[record]]
compound = "Cc1cnn(C(C)C(=O)N2CCc3[nH]nc(-c4ccc(F)c(F)c4)c3C2)c1 (stereo not drawn)"
measurement = "11.2% (inactive)"

[[record]]
compound = "Cc1ccc(-c2nc3c(s2)CN(C(=O)NCc2ccccc2)CC3)cc1"
measurement = "-24.6% [at 0.35 µM] (inactive)"


Please list max activity recorded for the compound COc1ccccc1-c1nc(Cn2nnc(-c3nc(-c4cccc(Cl)c4)no3)c2C)c(C)o1
8.57% [at 0.35 µM] (inactive)

Please list max activity recorded for the compound NC(=O)C1(N2CCCCC2)CCN(c2ccc(NC(=O)c3ccc(Cl)cc3)cc2C(=O)O)CC1
20.8% (inactive)

Please list max activity recorded for the compound CCc1nc(OCC(=O)Nc2cc(F)ccc2F)c2ccccc2n1
14.2% (inactive)

Please list max activity recorded for the compound COc1ccc(CN2CCO[C@H]3[C@H]2CC[C@H]3OCCCn2cccn2)cc1
14.7% [at 5 µM] (inactive)

Please list max activity recorded for the compound CCN1Cc2c(C(=O)Nc3ccc(C)cc3)ncn2-c2ccccc2S1(=O)=O
5.65% (inactive)

###

max activity overview
experimental protocol: inhibitors of Toxoplasma growth in IFN-γ-primed HeLa – cell-based, ME49Luc, luciferase, 72 h, dose response (AID 1259418)
assay context: T. gondii ME49Luc in IFN-y HeLa, stronger effect = lower value, -100% = high-dose IFN-γ control wells; at 19.5 µM unless noted
Screen size: about 3,400 compounds; about 840 (25%) were called active. Roughly 11% stayed inconclusive and do not appear here. Only a sample is shown. Entries with a potency or affinity are not part of this list.

Worked examples follow.
[[record]]
compound = "CC(C)c1ccc(C(=O)N=C(N)N)cc1S(C)(=O)=O"
measurement = "11.6% (inactive)"

[[record]]
compound = "Cc1ccc(S(=O)(=O)N2CCC3(CC2)NCCN=C3NCc2ccccc2F)c(C)c1"
measurement = "-12.4% (inactive)"

[[record]]
compound = "Cc1ccc(S(=O)(=O)N2CCC3(CC2)NCCN=C3NC2CCCC2)cc1C"
measurement = "15.2% [at 1.35 µM] (inactive)"

[[record]]
compound = "Fc1ccccc1CSc1nc(NCc2ccco2)c2ccccc2n1"
measurement = "15% [at 2.6 µM] (inactive)"

[[record]]
compound = "Clc1ccc(-c2nc(NC3CCCCCC3)c3ccccc3n2)cc1"
measurement = "14.3% [at 10 µM] (inactive)"


Please list max activity recorded for the compound COc1ccc(NC(=O)CN2CCC3(CC2)N=C(c2ccc(F)cc2)C(=O)N3)cc1Cl
-24% [at 0.16 µM] (inactive)

Please list max activity recorded for the compound Cc1ccc(Cn2c(CN3CCC(C(=O)NCc4cccnc4)CC3)cc3ccccc32)cc1
16.6% [at 2.6 µM] (inactive)

Please list max activity recorded for the compound COc1ccc(C[C@H]2CN(C(=O)c3ccnn3C)CC[C@H]2OC)cc1
30.4% (inactive)

Please list max activity recorded for the compound Cc1ccccc1Cn1cccc1CNS(=O)(=O)c1ccc2c(c1)CCC(=O)N2
13.6% [at 2.6 µM] (inactive)

Please list max activity recorded for the compound CCOC(=O)C1CCC(CNC(=O)Nc2ccc(-c3nc(-c4ccccc4)co3)cc2)CC1 (stereo unspecified)
-11.7% [at 5 µM] (inactive)

Please list max activity recorded for the compound O=S(=O)(c1cccs1)N1CCC2(CC1)NCCN=C2NCc1ccccc1Cl
-8.05% [at 1.35 µM] (inactive)
